test system: Saccharomyces cerevisiae; test: Antimicrobial activity against Saccharomyces cerevisiae isolate ADdelta overexpressing Saccharomyces cerevisiae ERG11 after 48 hrs by liquid microdilution assay; type: functional
Value Type: MIC

Briefly, MIC measured for CCC(C)n1ncn(-c2ccc(N3CCN(c4ccc(OCC5COC(Cn6cncn6)(c6ccc(Cl)cc6Cl)O5)cc4)CC3)cc2)c1=O (stereo not given) [ITRACONAZOLE] : 0.25 µg/mL

Briefly, MIC measured for C[C@@H](c1ncncc1F)[C@](O)(Cn1cncn1)c1ccc(F)cc1F [VORICONAZOLE] : 0.063 µg/mL

Briefly, MIC measured for CC(=O)N1CCN(c2ccc(OCC3COC(Cn4ccnc4)(c4ccc(Cl)cc4Cl)O3)cc2)CC1 (stereo not given) [KETOCONAZOLE] : 0.063 µg/mL

Briefly, MIC measured for OC(Cn1cncn1)(Cn1cncn1)c1ccc(F)cc1F [FLUCONAZOLE] : 2 µg/mL

Briefly, MIC measured for Clc1ccc(COC(Cn2ccnc2)c2ccc(Cl)cc2Cl)c(Cl)c1 (stereo not given) [MICONAZOLE] : 0.031 µg/mL
